experimental-system: CcP(triAla) (Saccharomyces cerevisiae, UniProt P00431, H119A/R115A/W118A)
Sequence (P00431 68-361 R115A/W118A/H119A): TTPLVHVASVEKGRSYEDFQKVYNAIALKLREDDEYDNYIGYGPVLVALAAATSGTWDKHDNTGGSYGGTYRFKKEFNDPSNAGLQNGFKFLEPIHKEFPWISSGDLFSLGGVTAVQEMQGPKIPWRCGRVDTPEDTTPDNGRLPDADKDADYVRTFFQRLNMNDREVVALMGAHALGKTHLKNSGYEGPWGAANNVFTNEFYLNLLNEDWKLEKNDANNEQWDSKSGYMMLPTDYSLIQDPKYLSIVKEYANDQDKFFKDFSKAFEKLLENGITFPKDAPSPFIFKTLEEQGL
protocol: biochemical
Type: binding, yeast
condition-summary: read-out: KD2 (low-affinity phase); pH 7.0, 0.10 M ionic strength potassium phosphate buffer
readout-name: Kd (mM)

1. c1c[nH]cn1 [Imidazole] ... 12

###

experimental-system: CcP(triAla) (Saccharomyces cerevisiae, UniProt P00431, H119A/R115A/W118A)
protocol: biochemical
Format: binding, yeast
condition-summary: read-out: KD1 (high-affinity phase); pH 7.0, 0.10 M ionic strength potassium phosphate buffer
pKd: −log10 of the molar value.
readout-name: pKd

1. c1c[nH]cn1 [Imidazole] ... 3.66

###

experimental-system: CcP(triAla) (Saccharomyces cerevisiae, UniProt P00431, H119A/R115A/W118A)
protocol: biochemical
Type: binding, yeast
condition-summary: read-out: KD1 (high-affinity phase); pH 5.5, 25 °C
readout-name: Kd (µM)

1) c1c[nH]cn1 ... 100

###

experimental-system: CcP(triAla) (Saccharomyces cerevisiae, UniProt P00431, H119A/R115A/W118A)
protocol: biochemical
Type: binding, yeast
condition-summary: read-out: KD2 (low-affinity phase); pH 7.0, 25 °C
readout-name: Kd (mM)

1. c1c[nH]cn1 ... 11

###

experimental-system: CcP(triVal) (Saccharomyces cerevisiae, UniProt P00431, H119V/R115V/W118V)
Sequence (P00431 68-361 R115V/W118V/H119V): as the sequence (P00431 68-361 R115A/W118A/H119A) above, with A48V, A51V, A52V counted along it
protocol: biochemical
Type: binding, yeast
condition-summary: read-out: KD1base (high pH limit of KD1); fit of pH dependence pH 4-8 to Eq. 2
readout-name: Kd

1) c1c[nH]cn1 [Imidazole] ... 96 µM

###

experimental-system: CcP(triVal) (Saccharomyces cerevisiae, UniProt P00431, H119V/R115V/W118V)
protocol: biochemical
Assay type: binding, yeast
condition-summary: read-out: KD2base (high pH limit of KD2); fit of pH dependence pH 4-8 to Eq. 2
pKd: −log10 of the molar value.
readout-name: pKd

1. c1c[nH]cn1 [Imidazole] ... 2.17

###

experimental-system: CcP(triVal) (Saccharomyces cerevisiae, UniProt P00431, H119V/R115V/W118V)
protocol: biochemical
Type: binding, yeast
condition-summary: read-out: KD1base (high pH limit of KD1); fit of pH dependence to Eq. 2
readout-name: Kd (µM)

1. c1c[nH]cn1 [Imidazole] ... 96

###

experimental-system: CcP(triAla) (Saccharomyces cerevisiae, UniProt P00431, H119A/R115A/W118A)
protocol: biochemical
Type: binding, yeast
condition-summary: read-out: KD1acid (low pH limit of KD1); fit of pH dependence pH 4-8 to Eq. 2
readout-name: Kd

1. c1c[nH]cn1 ... > 25 mM

###

experimental-system: CcP(triLeu) (Saccharomyces cerevisiae, UniProt P00431, H119L/R115L/W118L)
Sequence (P00431 68-361 R115L/W118L/H119L): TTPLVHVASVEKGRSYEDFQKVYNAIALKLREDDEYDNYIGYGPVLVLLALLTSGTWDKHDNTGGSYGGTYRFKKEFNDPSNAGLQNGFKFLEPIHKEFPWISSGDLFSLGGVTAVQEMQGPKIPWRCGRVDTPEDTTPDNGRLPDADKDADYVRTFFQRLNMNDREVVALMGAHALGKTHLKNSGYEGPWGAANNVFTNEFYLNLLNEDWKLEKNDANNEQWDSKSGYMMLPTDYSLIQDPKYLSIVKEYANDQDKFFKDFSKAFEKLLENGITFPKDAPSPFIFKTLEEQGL
protocol: biochemical
Format: binding, yeast
condition-summary: read-out: KD1 (high-affinity phase); pH 7.0, 0.10 M ionic strength potassium phosphate buffer
readout-name: Kd (µM)

1. c1c[nH]cn1 [Imidazole] ... 600

###

experimental-system: CcP(triAla) (Saccharomyces cerevisiae, UniProt P00431, H119A/R115A/W118A)
protocol: biochemical
Format: binding, yeast
Each entry below carries its recorded Kd.
readout-name: Kd (mM)

1) Cn1ccnc1 ... 0.35
2) O=[N+]([O-])c1c[nH]cn1 ... 16

###

experimental-system: CcP(triLeu) (Saccharomyces cerevisiae, UniProt P00431, H119L/R115L/W118L)
protocol: biochemical
Assay type: binding, yeast
condition-summary: read-out: KD1base (high pH limit of KD1); fit of pH dependence pH 4-8 to Eq. 2
pKd: −log10 of the molar value.
readout-name: pKd

1. c1c[nH]cn1 ... 3.66

###

Each entry below carries its recorded pKd.
experimental-system: CcP(triVal) (Saccharomyces cerevisiae, UniProt P00431, H119V/R115V/W118V)
protocol: biochemical
Assay type: binding, yeast
condition-summary: read-out: KD2 (low-affinity phase); pH 7.0, 0.10 M ionic strength potassium phosphate buffer
pKd: −log10 of the molar value.
readout-name: pKd

1. c1c[nH]cn1 [Imidazole] ... 1.92
2. Cn1ccnc1 [1-Methylimidazole, 1-methylimidazole] ... 2.17

###

experimental-system: CcP(triLeu) (Saccharomyces cerevisiae, UniProt P00431, H119L/R115L/W118L)
protocol: biochemical
Format: binding, yeast
pKd: −log10 of the molar value.
Each entry below carries its recorded pKd.
readout-name: pKd

1) O=[N+]([O-])c1c[nH]cn1 ... 1.46
2) Cn1ccnc1 ... 1.41

###

experimental-system: CcP(triLeu) (Saccharomyces cerevisiae, UniProt P00431, H119L/R115L/W118L)
protocol: biochemical
Assay type: binding, yeast
condition-summary: read-out: KD2 (low-affinity phase); pH 7.0, 0.10 M ionic strength potassium phosphate buffer
pKd: −log10 of the molar value.
readout-name: pKd

1) c1c[nH]cn1 ... 1.77

Value source: paper PMC4457643
